assay-details: protein stability index of a GFP-peptide fusion (GPS, HEK-293T) (PSI 1-6); higher = more stable;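 also: 24-mer peptide tiles fused after GFP, lentivirally expressed, FACS-sorted into six equal bins by GFP/DsRed ratio, decoded by Illumina sequencing, PSI is the read-weighted mean bin number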
run-conditions: treatment: DMSO; c terminus: a fixed tail appended
Items are presented alongside their recorded protein stability index.
readout-label: protein stability index

>  <construct-sequence>
AFSYSSSSRFSSSRLLGSASPSSS [PRPH]

>  <readout-label>
protein stability index

>  <numeric-value>
3.04

$$$$
>  <construct-sequence>
PKPEPPQLVLAYDYSREVNTTEEL [FEM1A]

>  <readout-label>
protein stability index

>  <numeric-value>
5.03

$$$$
>  <construct-sequence>
LSEVLAQPQGALAPPNCESDSKTG [DNAAF3]

>  <readout-label>
protein stability index

>  <numeric-value>
5.37

$$$$
>  <construct-sequence>
SRRDDLEALGHMFMYFLRGSLPWQ [CSNK1G1]

>  <readout-label>
protein stability index

>  <numeric-value>
3.48

$$$$
